Assay: Experimental lipophilicity by RP-TLC
Type: physicochemical
Conditions: MeOH/water mobile phase
Record MET whenever Experimental lipophilicity RMo is at 6 or higher; record NOT MET when lower.

These recorded examples may help you get a feel for the data.
Say whether C=CCSc1nc(-c2ccc(Cl)cc2)cc(-c2ccc(OC)c(OC)c2)n1 shows Experimental lipophilicity RMo of 6 or more.
NOT MET

Say whether COc1ccc(-c2cc(-c3cccc(OC)c3)nc(SC(C)C)n2)cc1 shows Experimental lipophilicity RMo of 6 or more.
MET

Next:
Say whether COc1ccc(-c2cc(-c3ccc(Cl)cc3)nc(SCc3ccccc3)n2)cc1OC shows Experimental lipophilicity RMo of 6 or more.
NOT MET

Say whether COc1ccc(-c2cc(-c3ccc(Cl)cc3)nc(SC(C)C)n2)cc1OC shows Experimental lipophilicity RMo of 6 or more.
MET

Say whether COc1ccc(-c2cc(-c3ccc(Cl)cc3)nc(SCc3ccccc3)n2)cc1 shows Experimental lipophilicity RMo of 6 or more.
MET

* * *

System: LOX IMVI
Assay: NCI-60 single-dose screen
Type: cell-based
Conditions: Homo sapiens, single dose 10 µM, '-' = no inhibition, read-out: % Growth Inhibition
# inhibition at 10 µM per record follows
Answer in %, number only, no unit symbol.

Use the examples below as a reference point.
Test item CCSc1nc(-c2ccc(OC)cc2)cc(-c2cccc(OC)c2)n1 [Compound 17] ; LOX IMVI; reported inhibition at 10 µM was 5.7

Test item C=CCSc1nc(-c2ccc(Cl)cc2)cc(-c2ccc(OC)cc2)n1 [Compound 13] ; LOX IMVI; reported inhibition at 10 µM was 4.72

Next:
Test item COc1ccc(-c2cc(-c3ccc(Cl)cc3)nc(SC(C)C)n2)cc1OC [Compound 26] ; LOX IMVI; reported inhibition at 10 µM was 4.14

Test item C=CCSc1nc(-c2ccc(Cl)cc2)cc(-c2ccc(OC)c(OC)c2)n1 [Compound 27] ; LOX IMVI; reported inhibition at 10 µM was 7.11

Test item COc1ccc(-c2cc(-c3cccc(OC)c3)nc(SC)n2)cc1 [Compound 16] ; LOX IMVI; reported inhibition at 10 µM was 0.51

Test item CCCSc1nc(-c2ccc(Cl)cc2)cc(-c2ccc(OC)c(OC)c2)n1 [Compound 25] ; LOX IMVI; reported inhibition at 10 µM was 1.51

Test item C=CCSc1nc(-c2ccc(OC)cc2)cc(-c2cccc(OC)c2)n1 [Compound 20] ; LOX IMVI; reported inhibition at 10 µM was 7.36

* * *

System: CCRF-CEM
Test: NCI-60 single-dose screen
Type: cell-based
Details: Homo sapiens, single dose 10 µM, '-' = no inhibition, read-out: % Growth Inhibition
READOUT_KIND: inhibition at 10 µM (%)
Answer in %, number only, no unit symbol.

Use the examples below as a reference point.
Field inhibition at 10 µM (entry COc1ccc(-c2cc(-c3ccc(Cl)cc3)nc(SC(C)C)n2)cc1OC ) reads 1.08

Field inhibition at 10 µM (entry COc1ccc(-c2cc(-c3cccc(OC)c3)nc(SC)n2)cc1 ) reads 8.85

Field inhibition at 10 µM (entry C=CCSc1nc(-c2ccc(OC)cc2)cc(-c2cccc(OC)c2)n1 ) reads 3.61

Field inhibition at 10 µM (entry CCCSc1nc(-c2ccc(Cl)cc2)cc(-c2ccc(OC)cc2)n1 ) reads 1.71

Field inhibition at 10 µM (entry COc1ccc(-c2cc(-c3ccc(Cl)cc3)nc(SCc3ccccc3)n2)cc1OC ) reads 17.4

Field inhibition at 10 µM (entry C=CCSc1nc(-c2ccc(Cl)cc2)cc(-c2ccc(OC)c(OC)c2)n1 ) reads 13.1

Next:
Field inhibition at 10 µM (entry C=CCSc1nc(-c2ccc(Cl)cc2)cc(-c2ccc(OC)cc2)n1 ) reads 3.79

Field inhibition at 10 µM (entry COc1ccc(CSc2nc(-c3ccc(Cl)cc3)cc(-c3ccc(OC)c(OC)c3)n2)cc1 ) reads 14.2

Field inhibition at 10 µM (entry CCSc1nc(-c2ccc(OC)cc2)cc(-c2cccc(OC)c2)n1 ) reads 2.15

Field inhibition at 10 µM (entry COc1ccc(-c2cc(-c3ccc(Cl)cc3)nc(SC(C)C)n2)cc1 ) reads 24.1

Field inhibition at 10 µM (entry COc1ccc(-c2cc(-c3ccc(Cl)cc3)nc(SC)n2)cc1 ) reads 0.1

Each recorded value in this set is attributed to paper PMC11576293.
